- Tested on: MCF7
- protocolDescription: Cytotoxicity against human MCF7 cells at 72 hrs by MTS assay
- Type: functional, cell-based
- measurementParameters: MCF7, 72 h
measure: IC50

Sample answers from the record:
compound="COc1cc2cc(c1)NC(=O)CCCCCCC=CC[C@H](OC(=O)[C@@H](Cc1ccccc1)NC(=O)C1CCCCC1)CC/C(C)=C/CC2 (mixture of isomers)" measure=IC50 result="5100 nM"
compound="COc1cc2cc(c1)NC(=O)CCCCCCC=CC[C@H](OC(=O)[C@@H](C)NC(=O)C1CCCCC1)CC/C(C)=C\\CC2 (mixture of isomers)" measure=IC50 result="> 100000 nM"
compound="COc1cc2cc(c1)NC(=O)CCCCCCC=CC[C@H](OC(=O)[C@@H](C)NC(C)=O)CC/C(C)=C/CC2 (mixture of isomers)" measure=IC50 result="1700 nM"

IN: Endpoint output: IC50 of COc1cc2cc(c1)NC(=O)CCCCCCC=CC[C@H](OC(=O)[C@H](C)NC(=O)C1CCCCC1)CC/C(C)=C/CC2 (mixture of isomers) . Value?
OUT: 1900 nM

IN: Entry to check: COc1cc2cc(c1)NC(=O)CCCCCCC=CC[C@H](OC(=O)[C@@H](C)NC(=O)C1CCCC1)CC/C(C)=C/CC2 (mixture of isomers)
OUT: 720 nM

IN: Entry to check: COc1cc2cc(c1)NC(=O)CCCCCCC=CC[C@H](OC(=O)CNC(=O)C1CCCCC1)CC/C(C)=C/CC2 (mixture of isomers)
OUT: 12000 nM

* * *

- Test system: MCF7
- protocolDescription: Cytotoxicity against human MCF7 cells at 72 hrs by MTS assay
- Assay type: functional, cell-based
- measurementParameters: MCF7, 72 h
measure: pIC50
Scale: negative log10 of molar concentration, which is what pIC50 denotes.

Sample answers from the record:
compound=COC1=C2C[C@@H](C)C[C@H](OC)[C@H](O)[C@@H](C)/C=C(\C)[C@H](OC(N)=O)[C@@H](OC)/C=C\C=C(/C)C(=O)NC(=CC1=O)C2=O targetofassay=MCF7 number=7.28
compound="COc1cc2cc(c1)NC(=O)CCCCCCC=CC[C@H](OC(=O)[C@@H](C)NC(=O)C1CCCCC1)CC/C(C)=C/CC2 (mixture of isomers)" targetofassay=MCF7 number=6.28

IN: Endpoint output: pIC50 of COc1cc2cc(c1)NC(=O)CCCCCCC=CC[C@H](OC(=O)[C@H](NC(=O)C1CCCCC1)C(C)C)CC/C(C)=C/CC2 (mixture of isomers) . Value?
OUT: 6.00
